PROTOCOL DESCRIPTION: Stability in cryopreserved pooled human hepatocytes
Type: in vitro ADME
DETAILS: cryopreserved pooled human hepatocytes (HEP10), read-out: t1/2 in cryopreserved hepatocytes
VALUE KIND: half-life

Q. Could you please provide reported half-life for CC[C@@H]1C2C[C@H](O)CC[C@]2(C)C2CC[C@@]3(C)C(CC[C@@H]3[C@H](C)CCOC(=O)C(C)(C)Oc3ccc(Cl)cc3)C2[C@@H]1O (stereo partly shown) ? Thanks!
A. 2.02 h

* * *

Property: PPARα efficacy (% vs. fenofibrate); scope: individual compounds
MEASURED ON: PPARα (Homo sapiens)
Construct: 20 nM PPARα LBD GST fused (Thermo Scientific); purchased Thermo Scientific
Sequence (Q07869 239-466 limits assumed): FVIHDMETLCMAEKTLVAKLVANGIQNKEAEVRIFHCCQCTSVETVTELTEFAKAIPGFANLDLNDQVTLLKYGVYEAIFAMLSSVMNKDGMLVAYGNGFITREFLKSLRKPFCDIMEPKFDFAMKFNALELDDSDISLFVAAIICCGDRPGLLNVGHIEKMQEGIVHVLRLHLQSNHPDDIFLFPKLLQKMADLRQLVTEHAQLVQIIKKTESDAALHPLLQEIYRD
PROTOCOL DESCRIPTION: AlphaScreen coactivator (SRC-1) recruitment assay on PPARα
Assay type: biochemical
DETAILS: AlphaScreen SRC-1 recruitment; compounds at 50 µM (footnote); fenofibrate = 100%
Number only, in %; omit the unit.

Worked set:
CC[C@@H]1C2C[C@H](O)CC[C@]2(C)C2CC[C@@]3(C)C(CC[C@@H]3[C@H](C)CCOC(=O)C(C)(C)CCCOc3cc(C)ccc3C)C2[C@@H]1O (stereo partly shown)	22
CC[C@@H]1C2C[C@H](OC(=O)C(C)(C)Oc3ccc(C(=O)c4ccc(Cl)cc4)cc3)CC[C@]2(C)C2CC[C@@]3(C)C(CC[C@@H]3[C@H](C)CCO)C2[C@@H]1O (stereo partly shown)	6.6
CC[C@@H]1C2C[C@H](O)CC[C@]2(C)C2CC[C@@]3(C)C(CC[C@@H]3[C@H](C)CCOC(=O)C(C)(C)Oc3ccc(C(=O)c4ccc(Cl)cc4)cc3)C2[C@@H]1O (stereo partly shown)	13

Switching to the query record.
Q. Report PPARα efficacy (% vs. fenofibrate) under test system PPARα (Homo sapiens) for CC[C@@H]1C2C[C@H](OC(=O)C(C)(C)Oc3ccc(Cl)cc3)CC[C@]2(C)C2CC[C@@]3(C)C(CC[C@@H]3[C@H](C)CCOC(=O)C(C)(C)Oc3ccc(Cl)cc3)C2[C@@H]1O (stereo partly shown) .
A. 27

// provenance: paper PMC11289669
